System: Target C
protocol-description: RT-qPCR splicing assay panel, Target C canonical junction (CJ) mRNA
Assay type: cell-based, human
study-conditions: Homo sapiens; canonical junction qPCR panel, Table 5; read-out: Target C (decrease in CJ mRNA levels, IC50)
pIC50: −log10 of the molar value.
measurement-name: pIC50

Worked examples, 3 compounds total:
Cc1c(O)c(-c2ncc3c(=O)n(C4CCNC4)ccc3n2)cc2cn(C)nc12 (stereo in doubt) [Compound 1440]
< 5.00
Cc1cn2cc(-c3cc(F)c4c(=O)n([C@@H]5CNC[C@H]5F)ccc4c3)cc(F)c2n1
< 5.00
Cn1cc2cc(-c3ccc4c(=O)n([C@H]5CCNC5)ccc4n3)c(O)c(F)c2n1
6.00 to 7.00

According to the records, this compound Cc1cn2cc(-c3ncc4c(=O)n(C56CCC(N)(CC5)C6)ccc4n3)cc(F)c2n1 displays pIC50 of 6.00 to 7.00

For CN(c1ccc2ncn(-c3cc(F)c4nn(C)cc4c3)c(=O)c2c1)C1CCNCC1 the compound record lists pIC50 as < 5.00

Quick note, pIC50 for Cc1cn2nc(-c3ccc4c(=O)n([C@H]5CCN[C@@H](C6CC6)C5)ncc4n3)cc(C)c2n1 landed at 6.00 to 7.00

The compound listed as Cc1cc(-c2nc3cc(N4CCN(C)CC4)ccc3c(=O)[nH]2)cc2cn(C)nc12 shows pIC50 equal to < 5.00

So, Cc1cn2nc(-c3ccc4c(=O)n([C@H]5CCNC6(CCC6)C5)ccc4n3)cc(C)c2n1 ? Its pIC50 was 6.00 to 7.00

Entry Cc1c(O)c(-c2ncc3c(=O)n([C@H]4CCN[C@@H](C)C4)ccc3n2)cc2cn(C)nc12 — recorded pIC50 = 6.00 to 7.00

Looking up Cc1c(O)c(-c2ncc3c(=O)n(C4C[C@H]5C[C@@H]4CN5)ccc3n2)cc2cn(C)nc12 (stereo in doubt) , I see its pIC50 listed as 6.00 to 7.00

Field pIC50 (entry Cc1cn2nc(-c3ccc4c(=O)n([C@@H]5CCN(C)[C@H](C)C5)ncc4n3)cc(C)c2n1 ) reads 6.00 to 7.00

The reported pIC50 of the compound Cc1cn2nc(-n3cnc4ccc(N5CCN(C)CC5)cc4c3=O)cc(C)c2n1 was 5.00 to 6.00

Looking up Cc1cn2cc(-c3ccc4c(=O)n([C@@H]5CCNC6(CC6)C5)ccc4n3)cc(F)c2n1 , I see its pIC50 listed as 5.00 to 6.00

# pIC50 (compound: Cc1cn2cc(-n3cnc4ccc(N5CCNCC5)cc4c3=O)cc(F)c2n1 ) is < 5.00

----------
System: Target C
protocol-description: HiBiT protein abundance assay, Target C (Promega Nano-Glo HiBiT Lytic Detection System, knock-in K562 cell line)
Type: cell-based, human
study-conditions: HiBiT K562 cell line, 24 hours, top dose 10 μM; read-out: Effect on protein abundance, Target C (IC50 category)
pIC50: −log10 of the molar value.
measurement-name: pIC50

Lookup result for Cc1cn2nc(-c3ccc4c(=O)n([C@@H]5CCNC6(CC6)C5)cnc4c3)cc(C)c2n1 [Compound 444] ; measured pIC50: 6.00 to 7.00

----------
Tested on: Target C
protocol-description: HiBiT protein abundance assay, Target C (Promega Nano-Glo HiBiT Lytic Detection System, knock-in K562 cell line)
Type: cell-based, human
study-conditions: Homo sapiens, K562, 24 h, HiBiT K562 cell line, 24 hours, top dose 10 μM; read-out: Effect on protein abundance, Target C (IC50 category)
measurement-name: IC50

Cn1cc2cc(-c3cc(F)c4c(=O)n(C5CCNCC5)cnc4c3)cc(F)c2n1
> 10 µM
Cn1cc2cc(-c3ccc4c(=O)n([C@@H]5CCNC6(CC6)C5)ccc4n3)c(O)cc2n1
0.1 to 1 µM
Cc1cn2nc(-c3ccc4c(=O)n([C@H]5CCN(C)[C@H](C)C5)ncc4c3)cc(C)c2n1
< 0.1 µM
COc1cc2c(=O)n(C3CCNCC3)ccc2cc1-c1cc(C)c2nc(C)cn2n1
> 10 µM
Cn1cc2ccc(-n3cnc4cc(NC5CCNCC5)ccc4c3=O)cc2n1
> 10 µM

Lab book: IC50 of Cc1cc(-c2ccc3c(=O)n([C@@H]4CCNC[C@H]4F)ncc3c2)cc2cn(C)nc12 noted as 1 to 10 µM

Note to self: IC50 recorded for Cc1cn2nc(-c3ccc4c(=O)n([C@@H]5CCNC5)ccc4n3)cc(C)c2n1 was 1 to 10 µM

The molecule listed as Cc1nc2c(F)cc(-c3ccc4c(=O)n(C5CCN(C)CC5)cnc4c3)cc2o1 has a reported IC50 of 1 to 10 µM

Entry Cc1cn2cc(-c3cc(F)c4c(=O)n([C@H]5CNC[C@@H]5F)ccc4c3)cc(F)c2n1 ; IC50 = > 10 µM

Measured IC50, Cc1c(O)c(-c2ncc3c(=O)n([C@H]4CCN[C@@H](C)C4)ccc3n2)cc2cn(C)nc12 : 0.1 to 1 µM

For this molecule ( Cc1cn2nc(-c3cc(F)c4c(=O)n(C5CCNCC5)cnc4c3)cc(C#N)c2n1 ), measured IC50 is < 0.1 µM

Please fill in: IC50 reported for Cc1cc(-c2cc(F)c3c(=O)n(C4CCNCC4)cnc3c2)cc2cn(C)nc12 = 0.1 to 1 µM

Noted for Cc1cn2nc(-c3ccc4c(=O)n(C5CCNCC5)cc(C)c4c3)cc(C)c2n1 : its IC50 reads 0.1 to 1 µM

In plain terms, Cc1cn2cc(-c3ccc4c(=O)n(C5CCN(C)CC5)cnc4c3)c(C)cc2n1 has a documented IC50 of 1 to 10 µM

Given item Cc1cc(-c2ccc3c(c2)CCN(C2CCNCC2)C3=O)cc2cn(C)nc12 , the value recorded as its IC50 is > 10 µM

IC50 recorded for this molecule, Cc1cn2cc(-c3cc(O)c4c(=O)n(C5CCNC6(CC6)C5)ncc4c3)cc(Cl)c2n1 (stereo not shown) , is 0.1 to 1 µM

----------
Below, each of the compounds is paired with its reported IC50 value.
System: MYB mRNA
protocol-description: RT-qPCR splicing assay, MYB canonical junction (CJ) and alternative junction (AJ) mRNA
Format: cell-based, human
study-conditions: Homo sapiens; Table 5 panel; canonical junction qPCR; compound concentration having 50% response in CJ decrease; read-out: MYB IC50 (decrease in CJ mRNA levels)

Cc1cn2cc(-c3ccc4c(=O)n(C5CCNCC5)cnc4c3)nc2c(C)n1
1 to 10 µM
Cc1cn2cc(-c3cc(F)c4c(=O)n(C5CCOC5)cnc4c3)cc(C#N)c2n1 (centres unmarked) [Compound 366]
1 to 10 µM
CCN1CCC(n2ncc3cc(-c4cc(C)c5nc(C)cn5n4)cc(O)c3c2=O)CC1
< 0.1 µM
Cc1cn2cc(-c3ccc4c(=O)n(C5CCNCC5)cnc4c3)cc(F)c2n1
0.1 to 1 µM
Cc1cn2nc(-c3cc(F)c4c(=O)n(C5CCNC5)cnc4c3)cc(C)c2n1 (centres unmarked)
1 to 10 µM

IC50 in this record for COc1c(-c2cc3ccn(C4CCNCC4)c(=O)c3cn2)cc2cn(C)nc2c1F : 1 to 10 µM

The measured IC50 associated with Cc1cn2nc(-c3ccc4c(=O)n([C@@H]5CCNC[C@H]5F)ncc4c3)cc(C)c2n1 reads 0.1 to 1 µM

Form: compound = Cc1cn2cc(-c3ccc4c(=O)n(C5CCNCC5)cnc4c3F)cc(F)c2n1 ; IC50 = 1 to 10 µM

For record Cc1c(O)c(-c2cc(F)c3c(=O)n(C4CCNC5(CC5)C4)ccc3c2)cc2cn(C)nc12 (centres unmarked) the listed IC50 is 1 to 10 µM

----------
Tested on: HTT mRNA
protocol-description: RT-qPCR splicing assay, HTT canonical junction (CJ) and alternative junction (AJ) mRNA
Type: cell-based, human
study-conditions: Homo sapiens; Table 5 panel; canonical junction qPCR; compound concentration having 50% response in CJ decrease; read-out: HTT IC50 (decrease in CJ mRNA levels)
pIC50: −log10 of the molar value.
measurement-name: pIC50

Reference set (3 entries):
Cc1cn2nc(-c3cc(O)c4c(=O)n(C5CCNC5)cnc4c3)cc(C)c2n1 (centres unmarked) [Compound 362]
< 5.00
Cc1cn2cc(-c3ccc4c(=O)n(C5CCN(C)CC5)cnc4c3F)cc(F)c2n1 [Compound 227]
5.00 to 6.00
CCN1CCC(n2ncc3cc(-c4cc(C)c5nc(C)cn5n4)ccc3c2=O)CC1 [Compound 266]
> 7.00

// pIC50 lookup, molecule = Cc1cn2nc(-c3cc(C)c4c(=O)n(C5CCNC6(CC6)C5)ccc4c3)cc(C)c2n1 (stereo in doubt) [Compound 397] , result: > 7.00

Field pIC50 (entry Cc1cc(-c2cc3ccn(C4CCN(CCO)CC4)c(=O)c3cn2)cc2cn(C)nc12 [Compound 1210] ) reads < 5.00

Notebook: Cc1cn2nc(-c3cc(F)c4c(=O)n([C@@H]5CCNC6(CC6)C5)cnc4c3)cc(C)c2n1 [Compound 356] , pIC50 read as 6.00 to 7.00

Record Cc1cn2nc(-c3ccc4c(=O)n(C5CCNC(C)(C)C5)ncc4c3)cc(C)c2n1 (centres unmarked) [Compound 279] , field pIC50: 6.00 to 7.00

Entry Cc1cn2nc(-c3ccc4c(c3)CCN(C3CCNC(C)(C)C3)C4=O)cc(C)c2n1 (centres unmarked) [Compound 267] — recorded pIC50 = 5.00 to 6.00
